Measured IC50, listed per entry for reference.
ASSAY_SYSTEM: Exon19 deletion EGFR (Homo sapiens, UniProt P00533, DEL746-750)
Construct: Assays to measure cellular phosphorylation of endogenous p-EGFR in cell lysates; endogenous in cells
Sequence (P00533 with tags, fused parts or gaps DEL746-750): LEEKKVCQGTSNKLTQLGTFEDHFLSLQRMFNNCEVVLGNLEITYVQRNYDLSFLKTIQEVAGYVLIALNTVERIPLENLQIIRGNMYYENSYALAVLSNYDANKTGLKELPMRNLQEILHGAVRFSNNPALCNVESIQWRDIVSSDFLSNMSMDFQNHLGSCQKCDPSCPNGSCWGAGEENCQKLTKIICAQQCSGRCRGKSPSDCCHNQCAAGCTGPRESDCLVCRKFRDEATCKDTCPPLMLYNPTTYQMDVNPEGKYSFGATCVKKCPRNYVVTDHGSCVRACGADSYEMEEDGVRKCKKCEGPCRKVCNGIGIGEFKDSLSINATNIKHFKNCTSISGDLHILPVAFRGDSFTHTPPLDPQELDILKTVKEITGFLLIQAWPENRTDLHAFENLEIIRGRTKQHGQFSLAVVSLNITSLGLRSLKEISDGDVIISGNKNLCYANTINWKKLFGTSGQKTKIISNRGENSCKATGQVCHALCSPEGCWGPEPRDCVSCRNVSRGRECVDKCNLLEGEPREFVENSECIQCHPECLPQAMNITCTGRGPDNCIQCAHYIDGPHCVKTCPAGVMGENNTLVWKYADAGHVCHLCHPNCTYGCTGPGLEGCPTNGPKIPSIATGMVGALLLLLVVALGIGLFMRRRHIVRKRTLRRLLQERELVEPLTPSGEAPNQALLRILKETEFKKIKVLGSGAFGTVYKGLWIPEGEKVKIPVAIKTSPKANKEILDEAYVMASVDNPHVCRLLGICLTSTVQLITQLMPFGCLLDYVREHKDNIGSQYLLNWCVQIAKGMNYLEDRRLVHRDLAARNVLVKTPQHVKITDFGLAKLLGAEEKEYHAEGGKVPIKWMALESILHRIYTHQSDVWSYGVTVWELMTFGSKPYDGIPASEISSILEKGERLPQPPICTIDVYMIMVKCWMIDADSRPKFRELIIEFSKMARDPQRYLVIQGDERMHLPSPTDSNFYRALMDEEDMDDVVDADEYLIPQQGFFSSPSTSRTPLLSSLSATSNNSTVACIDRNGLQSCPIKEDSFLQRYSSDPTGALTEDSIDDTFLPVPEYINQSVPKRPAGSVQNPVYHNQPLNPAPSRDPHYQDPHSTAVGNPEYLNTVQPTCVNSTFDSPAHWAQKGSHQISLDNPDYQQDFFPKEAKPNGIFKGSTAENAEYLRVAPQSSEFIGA
EXPERIMENT_NOTES: Exon19 deletion EGFR (activating single mutant) cellular phosphorylation assay
DETAILS: PC9 human lung cells (Exon 19 deletion EGFR); endogenous p-EGFR in cell lysates by ELISA; 2 h with compound; read-out: Assay 1 (IC50)
Respond with the bare value in nM.

Take a look at these entries with their results.
C=CC(=O)Nc1cc(Nc2nccc(-c3cnn4c3CCCC4)n2)c(OC)cc1N1CC[C@@H]2CN(C)C[C@@H]21 [Example 43] ... 18.2
C=CC(=O)Nc1cc(Nc2ncc(C#N)c(-c3cnn4ccccc34)n2)c(OC)cc1N(C)CCN(C)C [Example 39] ... 2.34
C=CC(=O)Nc1cc(Nc2nccc(-c3cnn4c3CCCC4)n2)c(OC)cc1N1CC[C@@H](N(C)C)C1 [Example 44] ... 33.3
C=CC(=O)Nc1cc(Nc2nccc(-c3cn(C)c4ccccc34)n2)c(OC)cc1C1=CCN(C)CC1 [Example 48] ... 39.9
C=CC(=O)Nc1cc(Nc2nccc(-c3cnn4ccccc34)n2)c(OC)cc1N1CC[C@@H]2CN(C)C[C@@H]21 [Example 55] ... 6.43

Which IC50 is listed for C=CC(=O)Nc1cc(Nc2ncc(C#N)c(-c3cnn4ccccc34)n2)c(OC)cc1N1CC(N(C)C)C1 [Example 40] ?
12.4

Which IC50 is listed for C=CC(=O)Nc1cc(Nc2nccc(-c3cn(C)c4ccccc34)n2)c(OC)cc1N(C)CCNC [Example 60] ?
14.6

Which IC50 is listed for C=CC(=O)Nc1cc(Nc2ncc(C#N)c(-c3cnn4ccccc34)n2)c(OC)cc1N1CCN(C)CC1 [Example 14] ?
53.3

Which IC50 is listed for C=CC(=O)Nc1cc(Nc2ncc(Cl)c(-c3c[nH]c4ccccc34)n2)c(OC)cc1C1=CCN(C)CC1 [Example 2] ?
1.29

Which IC50 is listed for C=CC(=O)Nc1cc(Nc2ncc(C#N)c(-c3cnn4ccccc34)n2)c(OC)cc1N1CC[C@@H](N(C)C)C1 [Example 38] ?
5.09

Which IC50 is listed for C=CC(=O)Nc1cc(Nc2ncc(Cl)c(-c3cn(C)c4ccccc34)n2)c(OC)cc1N(C)CCN(C)C [Example 26] ?
2.29

Which IC50 is listed for C=CC(=O)Nc1cc(Nc2ncc(Cl)c(-c3cnn4ccccc34)n2)c(OC)cc1N(C)CCN1CCN(C)CC1 [Example 32] ?
138

Which IC50 is listed for C=CC(=O)Nc1cc(Nc2nccc(-c3cnn4ccccc34)n2)c(OC)cc1N1CC[C@@H](N(C)C)C1 [Example 52] ?
26

Which IC50 is listed for C=CC(=O)Nc1cc(Nc2ncc(Cl)c(-c3cnn4ccccc34)n2)c(OC)cc1N1CCN(CC(=O)N(C)C)CC1 [Example 10] ?
73.8

Which IC50 is listed for C=CC(=O)Nc1cc(Nc2ncc(C)c(-c3cnn4ccccc34)n2)c(OC)cc1C1=CCN(C)CC1 [Example 1] ?
7.61
